Each recorded value in this set is attributed to patent US20250206729A1.

Tested on: MiaPaca-2 cells
Experimental Protocol: MiaPaca-2 cell proliferation assay
Format: cell-based
Settings: Homo sapiens, MIA PaCa-2; 67-72 h incubation, resazurin; read-out: MiaPaca-2 (inhibition of cell proliferation, IC50)
Measurement Label: IC50

> print(dat)
                         chemical.structure  value.observed
1  Cc1ccc(NC(=O)c2cc(C(F)(F)F)cnn2)cc1-c1cc(N2CCOCC2)ncn1   100 to 500 nM
2  Cc1ccc(NC(=O)c2cc(C(C)(F)F)cnn2)cc1-c1cc(OCCO)nc(N2CCOCC2)c1        < 100 nM
3  Cc1ccc(NC(=O)c2cncc(Cl)c2)cc1-c1cc(N[C@H](C)CO)nc(N2CCOCC2)c1   100 to 500 nM
4  Cc1ccc(NC(=O)c2cc(C(C)C)cnn2)cc1-c1ccnc(N2CCOCC2)c1  500 to 1000 nM

----------
Tested on: MiaPaca-2 cells
Experimental Protocol: MiaPaca-2 cell proliferation assay
Assay type: cell-based
Settings: Homo sapiens, MIA PaCa-2; 67-72 h incubation, resazurin; read-out: MiaPaca-2 (inhibition of cell proliferation, IC50)
# reported IC50; entries follow
Measurement Label: IC50

> print(dat)
                         chemical.structure  measurement.label    value.observed
1  Cc1ccc(NC(=O)c2cc(C3CC3)cnn2)cc1-c1nc(N[C@H](C)CO)cc(N2CCOCC2)n1               IC50    500 to 1000 nM
2  Cc1ccc(NC(=O)c2cc(Cl)cnn2)cc1-c1cc(N2CCOCC2)ncn1               IC50  1000 to 10000 nM
3  Cc1ccc(NC(=O)c2cc(C(F)(F)F)cnn2)cc1-c1cc(N[C@H](C)CO)nc(N2CCOCC2)c1               IC50          < 100 nM
4  Cc1cc(-c2cc(NC(=O)c3cc(C4CCC4)cnn3)ccc2C)cc(N2CCOCC2)n1               IC50     100 to 500 nM
5  Cc1ccc(NC(=O)c2cc(C3CC3)cnn2)cc1-c1cc(N2CCOCC2)nc(N[C@H](C)CO)n1               IC50     100 to 500 nM

----------
Test system: MiaPaca-2 cells
Experimental Protocol: MiaPaca-2 cell proliferation assay
Type: cell-based
Settings: Homo sapiens, MIA PaCa-2; 67-72 h incubation, resazurin; read-out: MiaPaca-2 (inhibition of cell proliferation, IC50)
pIC50: −log10 of the molar value.
Measurement Label: pIC50

> print(dat)
                                   compound  value.observed
1  Cc1ccc(NC(=O)c2cc(C(F)(F)F)cnn2)cc1-c1ccnc(N2C[C@@H]3C[C@H]2CO3)c1 [Example 87]          > 7.00
2  Cc1ccc(NC(=O)c2cc(Cl)cnn2)cc1-c1cc(OCCO)nc(N2CCOCC2)c1 [Example 32]    5.00 to 6.00
3  Cc1ccc(NC(=O)c2cc(C(C)C)cnn2)cc1-c1cc(OCCO)nc(N2CCOCC2)c1 [Example 39]    6.30 to 7.00

----------
# reported IC50; entries follow
Target Under Test: C-Raf kinase (SEQ ID NO: 2) (Homo sapiens, UniProt P04049, Y340D/Y341D)
Construct: C-Raf residues 306-end; Y340D, Y341D with N-; GST (N); purchased Sigma
Sequence (P04049 307-648 Y340D/Y341D): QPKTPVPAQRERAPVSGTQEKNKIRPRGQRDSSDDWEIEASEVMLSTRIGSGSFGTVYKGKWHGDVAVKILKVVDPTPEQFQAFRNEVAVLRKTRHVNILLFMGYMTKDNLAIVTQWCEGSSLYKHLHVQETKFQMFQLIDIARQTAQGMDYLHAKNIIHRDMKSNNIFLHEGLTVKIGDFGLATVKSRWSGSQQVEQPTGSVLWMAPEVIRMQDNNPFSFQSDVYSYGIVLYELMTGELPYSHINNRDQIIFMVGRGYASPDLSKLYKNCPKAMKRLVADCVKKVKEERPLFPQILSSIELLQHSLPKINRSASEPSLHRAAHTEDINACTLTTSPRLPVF
Experimental Protocol: Biochemical assay for C-Raf (coupled pyruvate kinase/lactate dehydrogenase)
Settings: 1 mM ATP; read-out: CRAF (inhibition of biochemical activity, IC50)
Measurement Label: IC50

> print(dat)
                                    molecule  value.observed
 1  Cc1ccc(NC(=O)c2cc(C(F)(F)F)cnn2)cc1-c1nc(OCCO)cc(N2CCOCC2)n1 [Example 43]      1 to 10 µM
 2  Cc1ccc(NC(=O)c2cc(C3CC3)cnn2)cc1-c1cc(N[C@H](C)CO)nc(N2CCOCC2)n1 [Example 36]   0.1 to 0.5 µM
 3  Cc1ccc(NC(=O)c2cc(C(F)(F)F)cnn2)cc1-c1ccnc(N2CC3CCC(C2)O3)c1 [Example 83]        < 0.1 µM
 4  Cc1ccc(NC(=O)c2cc(Cl)cnn2)cc1-c1cc(N2CCOCC2)ncn1 [Example 74]      1 to 10 µM
 5  Cc1ccc(NC(=O)c2cnc(C(F)(F)F)nc2)cc1-c1cc(OCCO)nc(N2CCOCC2)c1 [Example 11]     0.5 to 1 µM
 6  Cc1ccc(NC(=O)c2cc(C3CC3)cnn2)cc1-c1cccc(N2CCOCC2)c1 [Example 46]        < 0.1 µM
 7  Cc1ccc(NC(=O)c2cc(C3CC3)cnn2)cc1-c1ccnc(N2C[C@@H]3C[C@H]2CO3)c1 [Example 89]      1 to 10 µM
 8  Cc1ccc(NC(=O)c2cc(C3CCC3)cnn2)cc1-c1cc(N[C@H](C)CO)nc(N2CCOCC2)c1 [Example 48]        < 0.1 µM
 9  Cc1ccc(NC(=O)c2cc(C(C)(C)F)cnn2)cc1-c1cc(N[C@H](C)CO)nc(N2CCOCC2)c1 [Example 23]        < 0.1 µM
10  Cc1ccc(NC(=O)c2cc(C(F)(F)F)cnn2)cc1-c1ccnc(N2C[C@H]3C[C@@H]2CO3)c1 [Example 86]      1 to 10 µM
11  Cc1ccc(NC(=O)c2cc(C(F)(F)F)cnn2)cc1-c1nc(N[C@H](C)CO)cc(N2C[C@H]3C[C@@H]2CO3)n1 [Example 90]      1 to 10 µM
12  Cc1ccc(NC(=O)c2cc(C(F)(F)F)cnn2)cc1-c1nccc(N2CCOCC2)n1 [Example 10]      1 to 10 µM
